biological target: Ba/F3-FGFR1-transfected cells (Homo sapiens, UniProt P11362); construct: BAF3-FGFR1 (MIN IL3) pIC50; other: minus IL3; assay: Ba/F3-FGFR1 (minus IL3) cellular proliferation assay, Alamar Blue; assay type: cell-based
Sequence (P11362 whole entry, change not shown): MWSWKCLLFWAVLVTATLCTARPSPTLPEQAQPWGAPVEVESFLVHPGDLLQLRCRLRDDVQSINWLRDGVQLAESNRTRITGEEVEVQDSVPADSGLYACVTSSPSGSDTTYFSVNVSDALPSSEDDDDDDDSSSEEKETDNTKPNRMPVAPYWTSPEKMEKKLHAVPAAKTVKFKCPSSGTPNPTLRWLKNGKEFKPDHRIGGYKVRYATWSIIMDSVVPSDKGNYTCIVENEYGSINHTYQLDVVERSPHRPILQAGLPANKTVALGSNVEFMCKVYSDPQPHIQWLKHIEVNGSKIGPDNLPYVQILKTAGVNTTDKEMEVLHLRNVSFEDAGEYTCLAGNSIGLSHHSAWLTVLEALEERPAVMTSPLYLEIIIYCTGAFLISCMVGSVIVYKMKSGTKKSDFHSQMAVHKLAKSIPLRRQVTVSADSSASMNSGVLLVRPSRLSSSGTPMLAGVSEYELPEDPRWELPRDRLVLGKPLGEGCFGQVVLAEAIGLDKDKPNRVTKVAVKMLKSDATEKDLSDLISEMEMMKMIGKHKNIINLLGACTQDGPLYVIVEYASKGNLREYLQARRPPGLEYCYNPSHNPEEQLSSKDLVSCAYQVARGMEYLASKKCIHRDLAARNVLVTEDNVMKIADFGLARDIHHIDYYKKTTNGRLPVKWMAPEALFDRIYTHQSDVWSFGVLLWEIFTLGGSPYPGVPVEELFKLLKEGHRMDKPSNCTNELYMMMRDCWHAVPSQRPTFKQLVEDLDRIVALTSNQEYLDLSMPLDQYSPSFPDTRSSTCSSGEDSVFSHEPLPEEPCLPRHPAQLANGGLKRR
PROPERTY: BAF3-FGFR1 (MIN IL3) pIC50
Output spec: single numeric token, no unit.

Req: Please give measured BAF3-FGFR1 (MIN IL3) pIC50 of the following entry: `COc1cc(OC)cc(N(CCO)c2ccc3ncc(-c4ccncc4)nc3n2)c1`
Resp: 6.57

Req: Determine its reported BAF3-FGFR1 (MIN IL3) pIC50: `COc1cc(OC)cc(N(Cc2nnco2)c2ccc3ncc(-c4cnn(C)c4)nc3n2)c1`
Resp: 6.59

Req: Look up and state reported BAF3-FGFR1 (MIN IL3) pIC50 for `COc1cc(OC)c(F)c(N(CCNC(C)C)c2ccc3ncc(-c4cnn(C)c4)nc3n2)c1`
Resp: 8.3

Req: Specify reported BAF3-FGFR1 (MIN IL3) pIC50 for the molecule shown: COc1cc(OC)c(F)c(N(CC2CCC(=O)N2)c2ccc3ncc(-c4cnn(C)c4)nc3n2)c1 (stereo not shown) [Compound 52]
Resp: 7.10
